# System: 786-0 renal
# assay.name: NCI tumour cell line growth inhibition, 48 h
# binarize TGI: threshold 6 µM inclusive, high side yes, low side no

COC(=O)/C=C\n1c(C)cc(=O)[nH]c1=O = yes
CCOC(=O)N1CCN(c2nc(Nc3cc(C)[nH]n3)c3ccccc3n2)CC1 = yes
COc1ccc(S(=O)(=O)Nc2ccccc2C(=O)O)cc1 = yes

Exam item: Would you say Cc1ccc(S(=O)(=O)N/N=C(\c2nc3ccc(Cl)cc3[nH]c2=O)C(O)c2cccc([N+](=O)[O-])c2)cc1 (stereo unspecified) shows TGI at minimum 6 µM?
Marked response: yes

Exam item: Would you say CCCN1C(=O)CC(C)N(Cc2ccccc2Cl)C1=S (stereo unspecified) shows TGI at minimum 6 µM?
Marked response: yes

Exam item: Would you say COc1cc(NC(N)=NCCC(C)(C)Oc2ccc(C(F)(F)F)cc2)ncc1C#N shows TGI at minimum 6 µM?
Marked response: no

Exam item: Would you say [N-]=[N+]=C1N=CN=C1c1ncn[nH]1 shows TGI at minimum 6 µM?
Marked response: yes

====

# Test system: OVCAR-5 ovarian
# assay.name: NCI tumour cell line growth inhibition, 48 h
Each entry below carries its recorded TGI.

Solved cases (6 shown):
CN(C)CC(C)(C)/C(=N\Nc1ccccc1)c1ccccc1 = > 100 µM
CNC(=O)c1ccc(N2CCN(Cc3ccc4nc(C)c(=O)[nH]c4c3F)CC2)c(F)n1 = > 100 µM
NC(N)=N/N=C/c1nc2n(c1[N+](=O)[O-])CCS2 = > 100 µM
CC(=O)[C@@]1(C)CC2(CCN(C)CC2)OC1C (some centres not stated) = > 100 µM
CCCCC(C#N)(OP1(=O)OC(c2ccccc2)C(C)N1C)c1ccccc1 (configuration not stated) = 32.2 µM
COc1ccc(OC)c2c1CC(C(=O)O)(C(=O)O)CC2=O = > 100 µM

Exam item: Given the compound C#Cc1cccc(N2C(=O)CCC2=O)c1 , what is its reported TGI?
Marked response: 32.5 µM

Exam item: Given the compound CC(C)(C)C(=O)c1c(C(F)(F)F)n([O-])c2ccccc2[n+]1=O , what is its reported TGI?
Marked response: 2.15 µM

Exam item: Given the compound Cc1cc(S(=O)(=O)Nc2nc3cscc3c(=O)n2Cc2ccccc2)c(S)cc1Cl , what is its reported TGI?
Marked response: > 100 µM

Exam item: Given the compound C[C@H](CCC(=O)NCCS(=O)(=O)O)[C@H]1CC[C@H]2[C@@H]3CC[C@@H]4C[C@H](O)CC[C@]4(C)[C@H]3CC[C@]12C , what is its reported TGI?
Marked response: > 100 µM

Exam item: Given the compound COc1ccc(-n2cnnc2-c2nsc3ccccc23)cc1 , what is its reported TGI?
Marked response: > 100 µM

Exam item: Given the compound COc1cc(-c2cc3ncccc3c3nc(N)c4cccnc4c23)cc(OC)c1OC , what is its reported TGI?
Marked response: > 100 µM

Exam item: Given the compound Nc1ccccc1C(=O)CC1OC(=O)c2ccccc21 (configuration not stated) , what is its reported TGI?
Marked response: > 100 µM

Exam item: Given the compound C[Si](C)(OCCS(=O)(=O)O)C1(Cc2cccc3ccccc23)S(=O)(=O)OCCOS1(=O)=O , what is its reported TGI?
Marked response: 33.1 µM

Exam item: Given the compound CCCNNC(=O)/C=C/c1ccc(CNCCc2c(C)[nH]c3ccccc23)cc1 , what is its reported TGI?
Marked response: 0.191 µM

Exam item: Given the compound S=C(Nc1ccc(Br)cc1)Nc1ccc(Br)cc1 , what is its reported TGI?
Marked response: > 100 µM

Exam item: Given the compound CC(C)CCC(=O)c1ccoc1 , what is its reported TGI?
Marked response: > 100 µM

Exam item: Given the compound CN(C)c1ccc(C(=C(c2ccc(N(C)C)cc2)c2ccc(N(C)C)cc2)c2ccc(N(C)C)cc2)cc1 , what is its reported TGI?
Marked response: > 100 µM

Exam item: Given the compound Cc1ccc(S(=O)(=O)NC(=O)C2C(=O)CC3(CCCCC3)CC2=O)cc1 , what is its reported TGI?
Marked response: > 100 µM

Exam item: Given the compound Cc1sc2nc(-c3ccncc3)c(/C=N/N=C(N)N)n2c1C , what is its reported TGI?
Marked response: > 100 µM

Exam item: Given the compound O=C(O)c1cc2ccccc2c(N=Nc2ccc(S(=O)(=O)Nc3nccs3)cc2)c1O , what is its reported TGI?
Marked response: > 100 µM

====

# System: SF-295 CNS
# assay.name: NCI tumour cell line growth inhibition, 48 h; in the data active = GI50 below about 0.43 µM; inactive = the rest
The categories you may choose from are active, inactive

COc1cccc(-c2nc3sccn3c2-c2ccnc(NCCCNS(=O)(=O)c3cccc(F)c3)c2)c1 = inactive

Exam item: Each compound tested received a call. Report the one for Cc1nc(SCC(=O)Nc2nc(-c3ccc(Cl)cc3)cs2)n(Nc2ccccc2)c1C .
Marked response: inactive

Exam item: Each compound tested received a call. Report the one for COc1ccc(S(=O)(=O)N2CC(C)(C)CN(S(=O)(=O)c3ccc(OC)cc3)C2C(=O)NO)cc1 .
Marked response: inactive

Exam item: Each compound tested received a call. Report the one for O=C(CO[N+](=O)[O-])Nc1ccc(C(=O)/C=C/c2ccc(Cl)cc2)cc1 .
Marked response: inactive

Exam item: Each compound tested received a call. Report the one for CCOC(=O)c1sc(-c2ccc(OS(=O)(=O)c3ccc(Br)s3)c(C=O)c2)nc1C .
Marked response: inactive

Exam item: Each compound tested received a call. Report the one for COC(=O)[C@@H](C)C[C@H](Cc1ccccc1)NC(=O)c1csc(CC[C@H](C(C)C)N(C)C(=O)[C@@H](NC(=O)[C@H]2CCCCN2C)C(C)C)n1 .
Marked response: active

Exam item: Each compound tested received a call. Report the one for CN(C)CCCNC(=O)c1cc(NC(=O)c2cc(NC(=O)CCc3c[nH]c4ccccc34)cn2C)cn1C .
Marked response: inactive

Exam item: Each compound tested received a call. Report the one for O=C1c2ccccc2-c2c1c1c(=O)[nH]c3ccccc3c1n2Cc1ccccc1 .
Marked response: inactive

Exam item: Each compound tested received a call. Report the one for COc1cc(/C=C2\C(=O)Nc3cc(C)c(O)cc32)cc(OC)c1OC .
Marked response: inactive

Exam item: Each compound tested received a call. Report the one for COc1cc(-c2cc3ncccc3c3nc(N)c4cccnc4c23)cc(OC)c1OC .
Marked response: active

====

# Test system: SW-620 colon
# assay.name: NCI tumour cell line growth inhibition, 48 h
Each entry below carries its recorded TGI.

Solved cases (6 shown):
[Cl-].[O-]/N=C(\c1ccccc1)c1ccccn1.[O-]/N=C(\c1ccccc1)c1ccccn1.[O-]/N=C(\c1ccccc1)c1ccccn1.[Sm+3] = > 100 µM
C=C(C)C(=O)O[C@H]1C[C@@]23O[C@@H]2CCC(=C[C@H]2OC(=O)C(=C)[C@H]12)COC3O (some centres undefined) = 36.4 µM
COc1ccc(Nc2nc3ccc(C(F)(F)F)cc3nc2-c2ccccc2)cc1OC = > 100 µM
COc1ccc2c(CCN)c(C(=O)O)[nH]c2c1 = > 100 µM
O=C1Nc2ccccc2C12CCNC2Cc1ccccc1 (centres undefined) = > 100 µM
O=C(O)c1cc2ccccc2c(N=Nc2ccc(S(=O)(=O)Nc3nccs3)cc2)c1O = > 100 µM

Exam item: Notebook: pull reported TGI for SW-620 colon, entry CCc1cc(Cc2cc(Cl)c(NC(=O)C(=O)C3NC(=O)NC3=O)c(CC)c2)cc(Cl)c1NC(=O)C(=O)C1NC(=O)NC1=O (centres undefined)
Marked response: 24.1 µM

Exam item: Notebook: pull reported TGI for SW-620 colon, entry Cc1ccc(S(=O)(=O)NC(=O)C2C(=O)CC3(CCCCC3)CC2=O)cc1
Marked response: 84.7 µM

Exam item: Notebook: pull reported TGI for SW-620 colon, entry Cn1cc(C2=C(c3cn(CCCCN)c4ccccc34)C(=O)NC2=O)c2ccccc21
Marked response: > 25 µM

====

Each entry below carries its recorded TGI.
# System: SNB-75 CNS
# assay.name: NCI tumour cell line growth inhibition, 48 h

COC(=O)/C(=C\Nc1cccc(C)n1)S(=O)(=O)c1ccc(C)cc1 = > 100 µM
COC(=O)C1Cc2c(OC)ccc(OC)c2CC(C(=O)OC)C1=O (configuration not stated) = > 100 µM
Cc1nc(SCC(=O)Nc2nc(-c3ccc(Cl)cc3)cs2)n(Nc2ccccc2)c1C = 16.2 µM
COC(=O)CCC(=O)NC1=C(NCc2ccccc2)C(=O)c2ccccc2C1=O = > 100 µM
C#CCOc1cccc(-c2ncnc3cc(NC(=O)CCl)ccc23)c1 = 9.48 µM

Exam item: Given the molecule COc1cc2c(cc1OC)C(C(CO)CO)N(CC(O)CCl)CC2 (configuration not stated) , what is its reported TGI?
Marked response: > 100 µM

Exam item: Given the molecule CCC(CON(C)c1ccccc1)(SC)SC , what is its reported TGI?
Marked response: > 100 µM

Exam item: Given the molecule COc1cc2c(c(OC)c1OC)-c1ccc(SC)c(=O)cc1[C@@H](NCc1ccc(C#N)cc1)CC2 , what is its reported TGI?
Marked response: > 100 µM

Exam item: Given the molecule Cc1nc(Nc2ccc(Cl)cc2)sc1C(=O)NNc1ccc([N+](=O)[O-])cc1[N+](=O)[O-] , what is its reported TGI?
Marked response: 32.5 µM

Exam item: Given the molecule CCCNNC(=O)/C=C/c1ccc(CNCCc2c(C)[nH]c3ccccc23)cc1 , what is its reported TGI?
Marked response: 2.94 µM
